Task for the reader: assign each of the following molecules its reported cell count rep 3.
System: HeLa cells
ASSAY NOTES: Compound screen by flow cytometry: HeLa cell count as surrogate readout of cell viability (z-scoreHeLa)
Format: cell-based, human
MEASUREMENT SETUP: PKIS compound screen raw data, HeLa cell count, replicate 3
Protocol: The cells were resuspended in cell culture medium without antibiotics, seeded with 10,000 cells/well into Costar flat-bottom 96-well plates (Corning, Amsterdam, the Netherlands), and were incubated overnight at 37°C/5% CO2. […] The calculated mean MOI throughout all experiments was 6.8 ± 4.6 (mean ± SD). […] HeLa cells were harvested by trypsinization and fixed with 1% paraformaldehyde. Samples were measured on a FACSLyric with HTS extension (BD Biosciences). […]
Give bare numbers.

Solved entries:
MOLECULE	TARGET OR TEST SYSTEM	DATA VALUE
Cn1cc(-c2ccc3c(c2)CCN3C(=O)Cc2cc(F)cc(C(F)(F)F)c2)c2c(N)ncnc21 [GSK2635225A]	HeLa cells	4665
COc1cc(Nc2ccnc3ccc(C(F)(F)F)cc23)cc(OC)c1OC [GW577382X]	HeLa cells	2608
CC(=O)N1CCN(c2ccc(Nc3nccc(-c4sc(C(C)C)nc4-c4cccc(NS(=O)(=O)c5cccc(Cl)c5)c4)n3)cn2)CC1 [GSK1660437A]	HeLa cells	4504
O=C(Nc1n[nH]c2cc(-c3cccs3)ccc12)C1CC1	HeLa cells	2761
CN(c1ccc(NC(=O)Nc2cccc(Cl)c2)cc1)c1ccnc(N)n1 [GW830707A]	HeLa cells	4346

Give me cell count rep 3 for each of these molecules, listed below.
1. N#Cc1ccc(CCNc2nccc(-c3cccc(CN4CCNCC4)c3)n2)cc1 [GSK2137462A]
2. CCn1c(-c2nonc2N)nc2c(C#CC(C)(C)O)nc(OC[C@H](N)c3ccccc3)cc21 [GSK943949A]
3. CCOc1ccc2c(-c3ccnc(Nc4cccc(C(F)(F)F)c4)n3)cnn2n1 [GW811761X]

Response:
1. 40009
2. 431
3. 52915

###

System: HeLa cells
ASSAY NOTES: Compound screen by flow cytometry: HeLa cell count as surrogate readout of cell viability (z-scoreHeLa)
Format: cell-based, human
MEASUREMENT SETUP: PKIS compounds raw data; replicate 3; HeLa cell count
MEASUREMENT NAME: cell count rep 3
Give bare numbers.

COMPOUND	MEASUREMENT NAME	DATA VALUE
NS(=O)(=O)c1ccc(N/C=C2\C(=O)Nc3ccc4ncsc4c32)cc1 [GW297361X]	cell count rep 3	5130

Give me cell count rep 3 for each of these compounds, listed below.
1. CC(C)c1nc(-c2cccc(NS(=O)(=O)c3ccccc3)c2)c(-c2ccnc(Nc3ccc4c(c3)CN(C)CC4)n2)s1 [GSK1649598A]
2. COc1ccc(Nc2nccc(N3CCC(NC(=O)Nc4cccc(OC)c4)C3)n2)cc1 (stereo not shown) [GSK1379742A]
3. COc1cc(Nc2nccc(N3CCC(NC(=O)Nc4ccc5c(c4)OCO5)C3)n2)cc(OC)c1OC (stereo not shown) [GSK1379766A]
4. c1ccc(-c2cc3ccncc3cc2OC2CCNCC2)cc1 [GSK1122999D]
5. CS(=O)(=O)CCNCc1ccc(-c2ccc3ncnc(Nc4ccc(OCc5ccccc5)c(Cl)c4)c3c2)o1 [GW574783B]
6. c1ccc(COc2ccc(Nc3ncnc4ccc(-c5ccco5)cc34)cc2)cc1 [GW284372X]
7. O=C(Nc1ccccc1F)NC1CCN(c2ccnc(Nc3ccc(F)cc3)n2)C1 (stereo not shown) [GSK1379722A]

Response:
[4439, 9326, 6429, 6306, 8965, 9333, 7324]

Give me cell count rep 3 for each of these compounds, listed below.
1. O=C(Nc1ccccc1F)NC1CCN(c2ccnc(Nc3ccc(F)cc3)n2)CC1 [GSK1379800A]
2. CCCN(CCS(C)(=O)=O)Cc1ccc(-c2ccc3ncnc(Nc4ccc(OCc5cccc(F)c5)c(Cl)c4)c3c2)o1 [GW621823A]
3. Cc1ccc(NC(=O)Nc2ccccc2)cc1-c1ccc(C(=O)Nc2ccncc2)cc1 [GSK1398471A]
4. Cc1cccc(-c2nc(Nc3ccc4[nH]ncc4c3)c3ccccc3n2)n1 [GW857175X]
5. COc1cc(Nc2ncc3c(C)nc(-c4cc5ccccc5[nH]4)n3n2)cc(OC)c1OC [GW869516X]

Response:
1: 7551; 2: 9090; 3: 2624; 4: 3042; 5: 8115

Give me cell count rep 3 for each of these compounds, listed below.
1. O=S(=O)(CCOCc1ccc(-c2ccc3ncnc(Nc4ccc(OCc5cccc(F)c5)c(Cl)c4)c3c2)o1)c1ccccc1 [GW615311X]
2. c1ccc(-c2ccc3c(Nc4ccc5[nH]ccc5c4)ccnc3c2)nc1 [GW440138A]
3. CC(C)c1nc(-c2ccc(F)c(NS(=O)(=O)c3c(F)cccc3F)c2)c(-c2ccnc(Nc3ccc(N4CCOCC4)nc3)n2)s1 [GSK1804250A]

Response:
1: 7934; 2: 7928; 3: 4170
